FYI, the data here is from paper PMC9700728.

pIC50 values by entry
Target: rThC (recombinant thrombocorticin, ThC) (unclassified Corticium (in: sponges), UniProt C0HM62)
Construct: N-terminal 6xHis-tag (modified pET28), expressed in E. coli BL21(DE3); 131 residues, 14 kDa; homodimer, sugar site at protomer interface
Sequence (C0HM62 1-131): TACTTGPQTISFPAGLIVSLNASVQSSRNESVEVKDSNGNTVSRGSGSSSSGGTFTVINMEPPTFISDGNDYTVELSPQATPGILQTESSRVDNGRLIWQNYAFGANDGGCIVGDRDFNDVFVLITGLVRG
Assay: inhibition of rThC-induced Ba/F3-HuMpl cell proliferation
Settings: rThC 1 μg/mL, RPMI-1640 with 10% FBS, 37 °C, 4 days; competes with MPL glycan
pIC50: −log10 of the molar value.
value-kind: pIC50

• C[C@@H]1OC(O)[C@@H](O)[C@H](O)[C@@H]1O (some centres unmarked) = 4.64
• OC[C@H]1OC(O)[C@@H](O)[C@@H](O)[C@@H]1O (some centres unmarked) = 2.19
